Form field: inhibition at 20 µM (one value per entry).
TESTED_TARGET: Rho-A (Homo sapiens, UniProt P61586)
EXPERIMENTAL_PROTOCOL: Ras GTP binding domain inhibition assay (Cy3-GTP/Cy5-GTP competition)
EXPERIMENTAL_CONTEXT: with SOS, read-out: Rho-A + SOS: % inh.

| COMPOUND | RESULT_VALUE |
| --- | --- |
| Cn1ccnc1-c1nc(O)c(O)c(C(=O)NC2CCC2)n1 [drawing 960] | 51 to 75% |
| O=C(NC1CCC1)c1nc(-c2ccccn2)nc(O)c1O [drawing 944] | 76 to 100% |
| Cc1c(-c2ccn(C)n2)sc2nc(-c3nccn3C)nc(NCCCC(=O)N(C)C)c12 [drawing 1052] | 76 to 100% |

Enquiry: Recall and state the measured inhibition at 20 µM for COc1c(O)nc(-c2ccccn2)nc1Oc1ccc2ncccc2c1 [drawing 939] .
Return: 76 to 100%

Enquiry: Recall and state the measured inhibition at 20 µM for COC1CCN(c2nc(-c3nccn3C)nc3sc(-c4ccn(C)n4)c(-c4ccccc4)c23)C1 (centres unmarked) [drawing 998] .
Return: 1 to 25%

Enquiry: Recall and state the measured inhibition at 20 µM for O=C(NCc1ccccc1)c1nc(-c2ccccn2)nc(O)c1O [drawing 956] .
Return: 26 to 50%

Enquiry: Recall and state the measured inhibition at 20 µM for Cn1ccc(-c2sc3nc(-c4nccn4C)nc(N[C@H]4C[C@@H](O)C4)c3c2-c2ccccc2)n1 [drawing 1043] .
Return: 26 to 50%

Enquiry: Recall and state the measured inhibition at 20 µM for COC1CCN(c2nc(-c3nccn3C)nc3sc(-c4ccn(C)n4)c(-c4ccccc4)c23)CC1 [drawing 991] .
Return: 0%

---

TESTED_TARGET: Rho-A (Homo sapiens, UniProt P61586)
EXPERIMENTAL_PROTOCOL: Ras GTP binding domain inhibition assay (Cy3-GTP/Cy5-GTP competition)
EXPERIMENTAL_CONTEXT: at 20 μM, with SOS
TEST_READOUT: Rho-A + SOS: % inh.

| COMPOUND | TEST_READOUT | RESULT_VALUE |
| --- | --- | --- |
| COc1cccc(-c2sc3nc(-c4nccn4C)nc(NC4CCC(OC)C4)c3c2-c2ccccc2)c1F (stereo not shown) [drawing 1018] | Rho-A + SOS: % inh. | C (51-75% inhibition) |
| COc1cccc(-c2sc3nc(-c4nccn4C)nc(N4CCC(OC)C4)c3c2-c2ccccc2)c1F.Cl (stereo not shown) [drawing 973] | Rho-A + SOS: % inh. | C (51-75% inhibition) |

---

Form field: inhibition at 20 µM (one value per entry).
TESTED_TARGET: KRas G12D mutant (Homo sapiens, UniProt P01116, G12D)
Construct: fused on or other part: His tag, used for capture on nickel-coated plates
EXPERIMENTAL_PROTOCOL: Ras GTP binding domain inhibition assay (Cy3-GTP/Cy5-GTP competition)
EXPERIMENTAL_CONTEXT: at 20 μM, without SOS; read-out: KRas G12D mutant: % inh.

| COMPOUND | inhibition at 20 µM |
| --- | --- |
| Cc1cnc(-c2nc(O)c3scc(-c4ccccn4)c3n2)n1C [drawing 943] | 51 to 75% |
| Oc1nc(-c2ncc3ccccn23)nc2c(-c3ccccn3)csc12 [drawing 969] | 76 to 100% |
| CO[C@H]1CC[C@@H](Nc2nc(-c3nccn3C)nc3sc(-c4ccn(C)n4)c(C)c23)C1 [drawing 1050] | 26 to 50% |

Enquiry: Recall and state the measured inhibition at 20 µM for Cc1c(-c2ccn(C)n2)sc2nc(-c3nccn3C)nc(NCCCS(C)(=O)=O)c12 [drawing 1051] .
Return: 76 to 100%

Enquiry: Recall and state the measured inhibition at 20 µM for COCCNc1nc(-c2nccn2C)nc2sc(-c3cccc(OC)c3)c(-c3ccc(OC)cc3)c12 [drawing 1010] .
Return: 51 to 75%

Enquiry: Recall and state the measured inhibition at 20 µM for COCCn1cc(-c2sc3nc(-c4nccn4C)nc(N4CCC(OC)C4)c3c2-c2ccccc2)cn1 (centres unmarked) [drawing 976] .
Return: 51 to 75%

Enquiry: Recall and state the measured inhibition at 20 µM for CO[C@H]1C[C@@H](Nc2nc(-c3ccccn3)nc3sccc23)C1 [drawing 1037] .
Return: 51 to 75%

Enquiry: Recall and state the measured inhibition at 20 µM for COc1ccc(-c2sc3nc(-c4nccn4C)nc(N4CCC(OC)C4)c3c2-c2ccccc2)cn1 (centres unmarked) [drawing 971] .
Return: 26 to 50%

---

Form field: inhibition at 20 µM (one value per entry).
TESTED_TARGET: KRas G12D mutant (Homo sapiens, UniProt P01116, G12D)
Construct: fused on or other part: His tag, used for capture on nickel-coated plates
EXPERIMENTAL_PROTOCOL: Ras GTP binding domain inhibition assay (Cy3-GTP/Cy5-GTP competition)
EXPERIMENTAL_CONTEXT: 20 μM; with SOS; read-out: KRas G-12D mutant + SOS: % inh.

| MOLECULE | TEST_READOUT | RESULT_VALUE |
| --- | --- | --- |
| COC1CCN(c2nc(-c3nccn3C)nc3sc(-c4cccnc4)c(-c4ccccc4)c23)C1.Cl (stereo not shown) | inhibition at 20 µM | 51 to 75% |
| Oc1nc(-c2cn3cccnc3n2)nc2c(-c3ccccn3)csc12 [drawing 848] | inhibition at 20 µM | 1 to 25% |
| Cn1ccnc1-c1nc(O)c(O)c(C(=O)N2CCCC2)n1 [drawing 828] | inhibition at 20 µM | 1 to 25% |
| Cn1ccc(-c2sc3nc(-c4nccn4C)nc(NC4CCOCC4)c3c2-c2ccccc2)n1 [drawing 862] | inhibition at 20 µM | 1 to 25% |
| COCCNc1nc(-c2cn(C)cn2)nc2sc(-c3cccc(OC)c3Cl)c(-c3ccc(OC)cc3)c12 [drawing 797] | inhibition at 20 µM | 26 to 50% |
| Oc1nc(-c2ncc3ccccn23)nc2c(-c3ccccn3)csc12 [drawing 834] | inhibition at 20 µM | 51 to 75% |

Enquiry: Give the observed inhibition at 20 µM of COCCNc1nc(-c2nccn2C)nc2sc(-c3ccccc3Cl)c(-c3ccc(OC)cc3)c12 [drawing 876] for KRas G12D mutant (Homo sapiens, UniProt P01116, G12D).
Return: 76 to 100%

Enquiry: Give the observed inhibition at 20 µM of COc1c(O)nc(-c2ccccn2)nc1Oc1cccnc1 [drawing 802] for KRas G12D mutant (Homo sapiens, UniProt P01116, G12D).
Return: 51 to 75%

Enquiry: Give the observed inhibition at 20 µM of CC(C)NC(=O)c1nc(-c2nccn2C)nc(O)c1O [drawing 830] for KRas G12D mutant (Homo sapiens, UniProt P01116, G12D).
Return: 26 to 50%

Enquiry: Give the observed inhibition at 20 µM of Oc1nc(-c2cn(-c3ccccc3)cn2)nc2c(-c3ccccn3)csc12 [drawing 847] for KRas G12D mutant (Homo sapiens, UniProt P01116, G12D).
Return: 1 to 25%

Enquiry: Give the observed inhibition at 20 µM of COC1CCN(c2nc(-c3nccn3C)nc3sc(Br)c(-c4ccccc4)c23)C1 (stereo not shown) [drawing 822] for KRas G12D mutant (Homo sapiens, UniProt P01116, G12D).
Return: 51 to 75%

Enquiry: Give the observed inhibition at 20 µM of COc1nscc1-c1sc2nc(-c3nccn3C)nc(N3CCC(OC)C3)c2c1-c1ccccc1.Cl (stereo not shown) for KRas G12D mutant (Homo sapiens, UniProt P01116, G12D).
Return: 51 to 75%

Enquiry: Give the observed inhibition at 20 µM of COc1c(O)nc(-c2ccccn2)nc1Oc1ccc2ncccc2c1 [drawing 804] for KRas G12D mutant (Homo sapiens, UniProt P01116, G12D).
Return: 26 to 50%

Enquiry: Give the observed inhibition at 20 µM of COCCNc1nc(-c2cn(C)cn2)nc2sc(-c3cc(OC)ccc3Cl)c(-c3ccc(OC)cc3)c12 [drawing 795] for KRas G12D mutant (Homo sapiens, UniProt P01116, G12D).
Return: 26 to 50%

Enquiry: Give the observed inhibition at 20 µM of COCCNc1nc(-c2nccn2C)nc2sc(-c3cccc(OC)c3)c(-c3ccc(OC)cc3)c12 [drawing 875] for KRas G12D mutant (Homo sapiens, UniProt P01116, G12D).
Return: 76 to 100%

Enquiry: Give the observed inhibition at 20 µM of COC1CCN(c2nc(-c3nccn3C)nc3sc(-c4cnc(C5CC5)o4)c(-c4ccccc4)c23)C1.Cl (stereo not shown) for KRas G12D mutant (Homo sapiens, UniProt P01116, G12D).
Return: 51 to 75%

Enquiry: Give the observed inhibition at 20 µM of COc1cccc(Oc2nc(-c3ccccn3)nc(O)c2OC)c1 [drawing 801] for KRas G12D mutant (Homo sapiens, UniProt P01116, G12D).
Return: 51 to 75%

Hello, the source for this data is patent US20250296938A1, in case you need it.
